# credit: the supplement of paper PMC6555819

# System: PPARg:RXRa DBDmut IVT, anti-RXR (DBD mutation: RXRa K156A/R161A, NR concentration 270 nM, RXRa partner concentration 90 nM)
# measurementNotes: PBM binding z-score (relative to random genomic background probes); higher = stronger binding; sequences stand for … in GC…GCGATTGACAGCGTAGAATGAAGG
# PBM binding z-score >= 2 gives MET, anything below gives NOT MET

TCGAGTAGGTTACCAATGGGGCAGTCAGCTTTCT MET
CCTTACGGGCCACTCCAGGTTATAGCATCGGAGT NOT MET
TTACCAAAGTGAGCTGAGGTCGTTGATCCAACTC NOT MET
ATCGAAAGGTCGACGAGATGAGTATACACCGTTT NOT MET
ACTATTAGTTGACTTAGCGCAACCGATACGACGC NOT MET

Quick check: does `AGTCAAAGTTCACTAGGTAACATAAGATTCAGCT` have PBM binding z-score greater than or equal to 2?
MET

Now this one: `AGAATGAGGTTAATAAGATCAGGGAATTGCGGTC`
MET

Now this one: `CGTCCTAGGTCATAGGAGGTCAGTGAAGACAGAT`
MET

Now this one: `GGAACGAGGGCATTCGAGTTGACAGCATGGCGAT`
MET

Now this one: `CAAACTCGGTCACAGAGGTCAAAGTCCGTGCGTA`
MET

Now this one: `TCTGCTAGGTCGACGATGGTCAGCTAATCTGCTA`
NOT MET

Now this one: `TCATATAGGAAATACAGGTGAAAGTCGGCATCTA`
MET

Now this one: `AGTCAAAGTTCAGGACGAGGTAGCGTAAAGCACG`
NOT MET

----------
# Tested on: PPARg homodimer (NR concentration 180 nM)
# measurementNotes: PBM binding z-score (relative to random genomic background probes); higher = stronger binding; sequences stand for … in GC…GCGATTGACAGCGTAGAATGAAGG
The class of a record is decided solely by its measured PBM binding z-score; consult band A: < 0.3; band B: ≥ 0.3 and < 2; band C: ≥ 2

CCTGGGAGGACAGAAGGTCAGAGCTGTCCGCTTT band B
TCGAGTAGGTTAGTGGCATTCAGAATGGCGTCGA band B
AGTCAAACTTCATCTAGGTAACGTAAGATATGCT band A

Which class is correct for the following sequence? `CGAACGAGGACATGAGTTGATAGCAAATGCCGAT`
band A

Now this one: `TCTTGTAGATCAACAGGAGGTTAAGAACGATCGA`
band A

Now this one: `TCATATAGGTAAACAGGTGAATGTCCGTAAGTTA`
band B

Now this one: `CCGTACGGGTCACTGACAGGTTATAGCATTTGGA`
band B

Now this one: `GCTTGTAGATCAAGGTTAAGAAGGACTAAGCTAA`
band A

Now this one: `TCTAGCAGGCCAAAGGGTCACTCAAGAGGTACGG`
band C

Now this one: `TAGCCTAGGTCATGGGCCAGTATGCCACGCGAAC`
band B

Now this one: `CAAACTAGGTCACAGAGGTCACAGTCCGTGCGTA`
band C

Now this one: `GCTAGTTGGTCAGTGAAAGGTCACACACCGGTCG`
band C
